The measured values listed here are drawn from PubChem BioAssay (NCI).

# System: HCT-15 colon
# Measurement Description: NCI tumour cell line growth inhibition, 48 h
Give TGI for every item shown.
One number for each entry, in µM.

INSERT INTO results (molecule, endpoint_result) VALUES
  ('O=C1C(N=Nc2ccc(-c3nc4ccccc4[nH]3)cc2)NC(=S)N1c1ccccc1 (stereo unspecified)', 43.8),
  ('Cc1ccc(Oc2nc3ccccc3cc2-c2nnc(Cn3c(COc4ccccc4)nc4ccccc43)o2)cc1', 7.69),
  ('O=[N+]([O-])/C=C/c1ccc([N+](=O)[O-])cc1', 5.58);

For every item in the list below, what is its measured TGI?
1. CC(C)=CC1CC(C)C2(CCC3(C)CC4C(C(=O)CC4(C)O)/C(C=O)=C\CC32)O1 (stereo unspecified)
2. O=[N+]([O-])c1cccc(-c2cc(-c3cc(Br)ccc3O)[nH]n2)c1

1. 0.105
2. 12.9

* * *

# Tested on: K-562 leukemia
# Measurement Description: NCI tumour cell line growth inhibition, 48 h; in the data active means GI50 below about 0.43 µM; inactive means the rest
Give one outcome, nothing more. List: 1 (active), 0 (inactive)

INSERT INTO results (compound, class_label) VALUES
  ('O=C1C=CC(=O)c2c1ncc1c2nc2sccn21', 0),
  ('CC(C)CCC[C@@H](C)[C@H]1CCC2C3=CCC4C(=O)C=CC(=O)C4C3CC[C@@]21C (stereo partly drawn)', 1);

Please examine the following record next.
Could you check what this test reported for COc1cc(OC)cc(-c2cncn2-c2ccc(-c3nc4cc(OC)cc(OC)c4s3)cc2)c1 ?
0

* * *

# Test system: CCRF-CEM leukemia
# Measurement Description: NCI tumour cell line growth inhibition, 48 h
Endpoint: TGI

INSERT INTO assay_data (compound, tested_system, endpoint, endpoint_result) VALUES
  ('C[C@@H]1COC(Nc2ccc3ncnc(Nc4ccc(OCc5nccs5)c(Cl)c4)c3c2)=N1', 'CCRF-CEM leukemia', 'TGI', '> 80.9 µM'),
  ('CCOC(=O)C(C)c1nc2cc(N3CCN(C)CC3)c(F)cc2[nH]c1=O (centres undefined)', 'CCRF-CEM leukemia', 'TGI', '> 100 µM'),
  ('O=[N+]([O-])c1ccc(N=Nc2c(O)[nH]c3ccccc23)cc1', 'CCRF-CEM leukemia', 'TGI', '> 80.1 µM');

Now consider a different compound.
Entry C=CCN(CC=C)CC(C(C)=O)C(c1ccccc1)c1c(O)c2ccccc2oc1=O (centres undefined) : TGI on CCRF-CEM leukemia = > 100 µM

* * *

# System: HOP-92 NSCLC
# Measurement Description: NCI tumour cell line growth inhibition, 48 h; in the data active = GI50 below about 0.43 µM; inactive = the rest
Give one outcome, nothing more. List: y for active, n for inactive

INSERT INTO results (molecule, class_label) VALUES
  ('Cc1ccc(C[P+](c2ccccc2)(c2ccccc2)c2ccccc2)cc1', 'n'),
  ('CCN1CCC(CC(=O)Nc2n[nH]c3nc(-c4cccs4)c(Br)cc23)CC1', 'n'),
  ('COc1cc(/C=C2\C(=O)Nc3ccccc32)cc(OC)c1OC', 'n'),
  ('Cc1ccccc1C(C(=O)NC1CCCCC1)N(C(=O)Cn1ccnc1C)c1cccc(F)c1 (stereo not given)', 'n'),
  ('O=C(Nc1cccc(-n2ccc3c(NC(=O)c4ccccc4)nccc32)c1)c1cc(N2CCOCC2)cc(C(F)(F)F)c1', 'y'),
  ('CC1(C)Cc2c(Br)c(Br)c(Br)c(OCC(O)CN3CCOCC3)c2O1 (stereo not given)', 'n');

Could you check what this test reported for COc1cc2c3c(n(CCCNCCNCCCN)c(=O)c2cc1OC)-c1cc2c(cc1C3=O)OCO2 ?
n

Could you check what this test reported for COc1ccc2c(c1)[C@@]1(C)CCC3c4ccc(O)cc4CCC3C1C2 (stereo not given in full) ?
n

Could you check what this test reported for COc1cc2c(cc1OCCCN1CCN(c3cc(=O)oc4c(C)c(OC)ccc34)CC1)N=C[C@@H]1CCCN1C2=O ?
y

Could you check what this test reported for N/C(=N\c1nc2ccccc2s1)NC(=O)Nc1cccc2ccccc12 ?
n

* * *

# Tested on: SF-539 CNS
# Measurement Description: NCI tumour cell line growth inhibition, 48 h
Endpoint: TGI

Guide cases for TGI, answers given:
INSERT INTO measurements (compound, endpoint, endpoint_result) VALUES
  ('CNCCOC(=O)/C=C1/CCC2C(C(O)CC3C(C)(C(=O)OC)CCCC23C)C1C (configuration not stated)', 'TGI', '0.0408 µM'),
  ('CCOC(=O)/C(=C\c1ccc(F)cc1)C(C)=O', 'TGI', '> 100 µM'),
  ('NC1=NC(c2ccc(F)cc2)C2=C(N1)c1ccc3ccccc3c1OCC2 (configuration not stated)', 'TGI', '2.45 µM'),
  ('OCc1ccc(Oc2c3ccccc3nc3occc23)cc1', 'TGI', '71 µM'),
  ('O=C1OCC2=C1C(c1cccc(C(F)(F)F)c1)c1cc3c(cc1N2CCO)CCC3 (configuration not stated)', 'TGI', '0.46 µM'),
  ('COc1ccc(-c2csc3c2-n2cccc2C3=O)cc1O', 'TGI', '> 100 µM'),
  ('Cc1nnc2sc(N/N=C/c3ccccc3)nn12', 'TGI', '> 100 µM'),
  ('COc1cc(C(SCc2ccccc2)SCc2ccccc2)ccc1O', 'TGI', '> 10 µM'),
  ('Cc1n(CC(=O)c2ccccc2)nc2sc(N)n[n+]12', 'TGI', '> 100 µM'),
  ('CCC(=O)c1ccc2c(c1)N(CCCN1CCN(CCO)CC1)c1ccccc1S2', 'TGI', '27 µM');

For every item in the list below, what is its measured TGI?
1. CC(=O)OCC1OC(c2nnc(C)o2)=CC(OC(C)=O)C1OC(C)=O (configuration not stated)
2. CCOC(=O)C(C)c1nc2cc(N3CCN(C)CC3)c(F)cc2[nH]c1=O (configuration not stated)
3. O=C(CCCn1ccnc1[N+](=O)[O-])NCCn1ccnc1[N+](=O)[O-]

> 100 µM
> 100 µM
> 100 µM

* * *

Give TGI for every item shown.
# System: T-47D breast
# Measurement Description: NCI tumour cell line growth inhibition, 48 h

Guide cases for TGI, answers given:
INSERT INTO assay_data (molecule, endpoint, endpoint_result) VALUES
  ('O=C(OCc1ccccc1)N1c2cc([N+](=O)[O-])ccc2C(=O)N2CCC[C@H]2C1O (some centres undefined)', 'TGI', '> 100 µM'),
  ('CCCCCCCCCCCCCCCCn1cc[n+](Cc2ccccc2)c1C', 'TGI', '0.951 µM');

For every item in the list below, what is its measured TGI?
1. CC1CCC2(CC1)N=C1CCC(C)CC1C1(CCC(C)CC1)N2 (centres undefined)
2. O=C(NN1C(=O)C=CC1=O)c1ccccc1Nc1ccccc1C(=O)NN1C(=O)C=CC1=O
3. CCOC(=O)C1=C(c2ccccc2)N(c2ccc(OC)cc2)[C@]2(C#N)C(O)=C(Cl)C(Cl)=C(O)[C@]12C#N
4. C=C(C)[C@@H]1CC[C@]2(C(=O)NCCNCCNCCN)CC[C@]3(C)[C@H](CC[C@@H]4[C@@]5(C)CCC(=O)C(C)(C)[C@@H]5CC[C@]43C)[C@@H]12
5. NC(=O)NCCCC(NC(=O)OCCCCCn1ccc(=O)[nH]c1=O)C(=O)O (centres undefined)
6. COc1cc2c3c(n(C)c(=O)c2cc1OC)-c1cc2c(cc1/C3=C/[C@H](N)CCCCN)OCO2

1. > 100 µM
2. > 100 µM
3. 44.9 µM
4. 18.7 µM
5. > 100 µM
6. > 100 µM

The reported TGI of the molecule COc1ccc(C2(C3c4cc(OC)c(OC)cc4CCN3C)SCCCS2)cc1O (centres undefined) was > 100 µM

* * *

# Test system: HT29 colon
# Measurement Description: NCI tumour cell line growth inhibition, 48 h
Give TGI for every item shown.

INSERT INTO measurements (compound, endpoint_result) VALUES
  ('CCOC(=O)c1cnc2cc3cccccc3n2c1=O', '> 100 µM'),
  ('CCOC(=O)C1=C(c2ccccc2)N(c2ccc(OC)cc2)[C@]2(C#N)C(O)=C(Cl)C(Cl)=C(O)[C@]12C#N', '> 100 µM'),
  ('COc1cc(/C=C/C(=O)OC[C@H](Br)[C@H](OC(C)=O)c2ccc3c(c2)OCO3)cc(OC)c1OC', '> 100 µM'),
  ('Oc1ccc(CN(Cc2ccc(C(F)(F)F)cc2)Cc2ccc(O)c3ncccc23)c2cccnc12', '> 100 µM'),
  ('COC(=O)[C@]12CC=C3O[C@@H]4OC5(CCCCC5)O[C@@H]4[C@H]3C1C(=O)C=CC2=O (stereo partly specified)', '34.6 µM'),
  ('COC(=O)[C@@H]1CCCN1C(=O)[C@H]1CCCN1C(=O)[C@@H](Cc1c[nH]c2ccccc12)NC(=S)Nc1cc(C(F)(F)F)cc(C(F)(F)F)c1', '3.84 µM'),
  ('COc1cc2c3c(n(C)c(=O)c2cc1OC)-c1cc2c(cc1/C3=C/[C@H](N)CCCCN)OCO2', '> 100 µM'),
  ('COc1ccc(C2c3cc4c(cc3OC(N3CCCCC3)C2C)OCO4)cc1 (stereo unspecified)', '> 100 µM'),
  ('COC1/C=C/C(C)C(C(C)C(OC)C(C)CCC(=O)C(C)C(C/C=C/N(C)C=O)OC)OC(=O)/C=C/C=C(\C)CC(OC)C(OC)C2=CC(=O)O[C@@H](C(C)C(OC)CC(OC)/C=C/C(C)C(O)C1)[C@H]2O (stereo partly specified)', '2.15 µM'),
  ('CCCCCCCCCCCCCCCCn1cc[n+](Cc2ccccc2)c1C', '1.08 µM');

For every item in the list below, what is its measured TGI?
1. N#Cc1nc(/C=C/c2ccccc2)oc1N
2. COc1ccc(-c2csc3c2-n2cccc2C3=O)cc1O
3. COC(=O)n1c(CBr)c(Br)c2ccccc21
4. c1cncc(CNc2ncn[nH]2)c1
5. Cc1ccc2nc(N/N=C/c3cccc(C)n3)cc(C)c2c1

> 100 µM
> 78.1 µM
> 100 µM
> 100 µM
27.3 µM

For every item in the list below, what is its measured TGI?
1. CCOC(=O)/C(=C\c1ccc(F)cc1)C(C)=O
2. Cc1nnc2sc(N/N=C/c3ccccc3)nn12
3. COc1ccc(C(=O)CC(c2ccc(OC)c(OC)c2)c2c(O)c3ccccc3oc2=O)cc1OC (stereo unspecified)
4. CN(C)CCn1c(=O)c2ccc3c4c(nn3CCN(C)C)c3ccccc3n(c1=O)c24
5. COc1cc(CNc2nc3cc(C(F)(F)F)ccc3nc2C)cc(OC)c1OC
6. CN(C)CCOC1(CC2CCCCC2)CCC(C(C)(C)C)CC1 (stereo unspecified)

1: > 100 µM; 2: > 100 µM; 3: > 100 µM; 4: 2.23 µM; 5: 33.6 µM; 6: 7.02 µM
